Recorded values, source patent US20240262819A1.

test: Evaluation of blood-brain barrier (BBB) permeability through oral administration; format: in vivo, mice; details: mouse, in vivo; mice, oral, dose 30 mg/kg, 4 hr; read-out: Mean drug concentrations in plasma at 4 hr
Below is a list of entries, each paired with its recorded log10 of concentration at 4 h value.
Field: value | Transform: log10 | Quantity: concentration at 4 h | Unit: ng/mL

Would you please look over these solved cases?
Lookup result for COc1ccc(-c2cc3c(cc2F)[C@H](NC(=O)O[C@@H]2CN4CCC2CC4)C(C)(C)C3)c(F)c1 ; measured log10 of concentration at 4 h: 2.96

Lookup result for Cc1cc(OC(C)C)ccc1-c1ccc2c(c1)CC(C)(C)[C@H]2NC(=O)O[C@@H]1CN2CCC1CC2 ; measured log10 of concentration at 4 h: 3.26

Lookup result for COc1ccc(-c2cc3c(cc2F)[C@H](NC(=O)O[C@@H]2CN4CCC2CC4)C(C)(C)C3)cc1F ; measured log10 of concentration at 4 h: 2.88

Others:
Lookup result for Cc1cc(-c2ccc3c(c2)CC(C)(C)[C@H]3NC(=O)O[C@@H]2CN3CCC2CC3)cc(C)c1OC(C)C ; measured log10 of concentration at 4 h: 3.04

Lookup result for CC(C)Oc1ccc(-c2cc3c(cc2F)[C@H](NC(=O)O[C@@H]2CN4CCC2CC4)C(C)(C)CC3)cc1 ; measured log10 of concentration at 4 h: 3.27

Lookup result for COc1ccc(-c2ccc3c(c2)CC(C)(C)[C@H]3NC(=O)O[C@@H]2CN3CCC2CC3)c(Cl)c1 ; measured log10 of concentration at 4 h: 3.19

Lookup result for CCCOc1ccc(-c2ccc3c(c2)CC(C)(C)[C@H]3NC(=O)O[C@@H]2CN3CCC2CC3)cc1Cl ; measured log10 of concentration at 4 h: 2.20

Lookup result for COc1c(C)cc(-c2cc3c(cc2F)[C@H](NC(=O)O[C@@H]2CN4CCC2CC4)C(C)(C)CC3)cc1C ; measured log10 of concentration at 4 h: 3.06

Lookup result for Cc1ccc(-c2cc3c(cc2F)[C@H](NC(=O)O[C@@H]2CN4CCC2CC4)C(C)(C)C3)cc1Cl ; measured log10 of concentration at 4 h: 2.83

Lookup result for COc1ccc(-c2ccc3c(c2)CC(C)(C)[C@H]3NC(=O)O[C@@H]2CN3CCC2CC3)cc1F ; measured log10 of concentration at 4 h: 3.05

Lookup result for CCc1cccc(-c2ccc3c(c2)CCC(C)(C)[C@H]3NC(=O)O[C@@H]2CN3CCC2CC3)c1 ; measured log10 of concentration at 4 h: 3.01
